# System: Plasmodium falciparum
# Procedure Text: GSK_TCMDC: Inhibition of Plasmodium falciparum 3D7 in whole erythrocytes, using parasite LDH activity as an index of growth.
# Type: functional, organism-based
# Experimental Conditions: Plasmodium falciparum, 3D7
Each record here notes measured XC50.
The response must be a number in nM with no trailing unit.

Consider the compound shown here: CC(O)C1CCCCN1C(=O)c1cccc(-c2cccc(-c3nc4ccccc4[nH]3)c2)c1 (stereo unspecified) What is its recorded XC50?
534

Reported XC50, compound COc1ccc(S(=O)(=O)NC2CCN(CCNC(=O)Nc3cc(C)nc4ccccc34)C2)cc1 (stereo unspecified) : ____
1190

Please report the recorded XC50 for Cc1cc(NC(=O)NCCN2CCC(NC(=O)c3cccc(Br)c3)C2)c2ccccc2n1 (stereo unspecified) .
553

Which XC50 value belongs to Cc1ccccc1C1CCN(c2ccc(C(=O)Nc3ccccc3)cn2)CC1 ?
327

Tell me the measured XC50 of O=C(NCC1CCN(CC2CCCCC2)C1)c1cc(-c2cccc(C(F)(F)F)c2)cs1 (stereo unspecified) , please.
738

Query (compound): C=CCn1c(Sc2ccc(C#N)c([N+](=O)[O-])c2)nnc1-c1ccc(OC)cc1 ; field requested: XC50
795

New cases:
What does the record list as XC50 for COc1ccc2nccc([C@H](O)CN3CCC(NCc4ccc5c(c4C)OCCO5)CC3)c2n1 ?
886

Look up XC50: c1ccc2c(NCCCCCCCNc3ccnc4ccccc34)ccnc2c1
169

Query: XC50; subject: CN1CCN(c2nsc3ccc(-c4ccc(OCCN5CCCC5)cc4)cc23)CC1
826

Find the recorded XC50 belonging to C(=NNc1nc2ccccc2[nH]1)c1ccccc1OCc1ccccc1 and report it.
256

Look at this compound and give its reported XC50. O=C(c1ccc(-c2cnc3[nH]cc(-c4ccc(C(=O)N5CCOCC5)cc4)c3c2)cc1)N1CCOCC1
1000

# input compound: N#Cc1c(N2CCN(c3ccc(F)cc3)CC2)nc(N)c2c(N)nc3c(c12)CC(=O)N3C1CC1 ; wanted: its XC50
837

# get_value(readout='XC50', item= CC1CCN(C(=O)C(Cc2c[nH]c3ccccc23)NS(=O)(=O)c2ccc(Cl)cc2)CC1 (stereo unspecified) )
717

Find the recorded XC50 belonging to CNCCNCc1ccc(-c2cccc(-c3nc4cc(F)ccc4[nH]3)c2)cc1 and report it.
1130

Entry Cc1csc(-c2nonc2NC(=O)COc2ccccc2C(C)C)n1 : reported XC50 = ?
551

Give the measured XC50 of O=C(N[C@@H](Cc1ccccc1)C(=O)NCCN1CCCC1)c1ccc(O)c(-c2ccc(Cl)c(Cl)c2)c1 .
800
